ASSAY_NAME: Solubility at pH 7.2
Type: physicochemical
MEASUREMENT_CONDITIONS: buffer
Entries annotated with measured solubility
The reply should consist of the numeric value with the unit placed after it.

| MOLECULE | solubility |
| --- | --- |
| CN[C@H]1CN(c2ccc3c(=O)c(C(=O)O)cn(-c4nccs4)c3n2)C[C@@H]1OC.Cl | 23.7 mg/mL |
| C[C@H]1CN(c2ccc3c(=O)c(C(=O)O)cn(-c4nccs4)c3n2)C[C@@H]1N.Cl | 0.017 mg/mL |
| CC1(N)CCN(c2ccc3c(=O)c(C(=O)O)cn(-c4nccs4)c3n2)C1.Cl (stereo not given) | 0.0038 mg/mL |
| CNC1CCN(c2ccc3c(=O)c(C(=O)O)cn(-c4nccs4)c3n2)C1.Cl (stereo not given) | 0.008 mg/mL |

Now for another entry.
# lookup: solubility of CO[C@H]1CN(c2ccc3c(=O)c(C(=O)O)cn(-c4nccs4)c3n2)C[C@@H]1N.Cl 0.047 mg/mL

---

# reported solubility; entries follow
ASSAY_NAME: Solubility at pH 7.2
Format: physicochemical
MEASUREMENT_CONDITIONS: buffer
Report the figure in µg/mL without appending any unit label.

Some compounds with recorded solubility:
| COMPOUND | UNIT_NAME | solubility |
| --- | --- | --- |
| CNC1(C)CCN(c2ccc3c(=O)c(C(=O)O)cn(-c4nccs4)c3n2)C1.Cl (stereo not given) | µg/mL | 7.2 |
| Cl.NC1CCN(c2ccc3c(=O)c(C(=O)O)cn(-c4nccs4)c3n2)C1 (stereo not given) | µg/mL | 6.9 |
| CN[C@H]1CN(c2ccc3c(=O)c(C(=O)O)cn(-c4nccs4)c3n2)C[C@@H]1C.Cl | µg/mL | 6.2 |

// lookup solubility for CN[C@@H]1CN(c2ccc3c(=O)c(C(=O)O)cn(-c4nccs4)c3n2)C[C@H]1OC.Cl 19800

Recorded solubility for CN[C@H]1CN(c2ccc3c(=O)c(C(=O)O)cn(-c4nccs4)c3n2)C[C@@H]1OC.Cl , please? 20100

---

Test system: Mus musculus
ASSAY_NAME: Ratio of median survival time of treated mice (T) to that of median survival time of controls (C) in mice infected with p388 cells (in vivo) at a dose of 6.25 mg/kg
Format: functional
METRIC: T/C (%)
Numbers only here, please. The scale is %.

Sample records with T/C:
| MOLECULE | QUANTITATIVE_READOUT |
| --- | --- |
| COc1cccc2c1C(=O)c1c(O)c3c(c(O)c1C2=O)C[C@@](O)(C(=O)CO)C[C@@H]3O[C@H]1C[C@H](N)[C@H](O)[C@H](C)O1 | 293 |
| CN[C@@H]1CN(c2ccc3c(=O)c(C(=O)O)cn(-c4nccs4)c3n2)C[C@H]1OC.Cl | 188 |

Now for the molecule whose T/C we want.
Bench note: what T/C did COc1cc([C@@H]2c3cc4c(cc3[C@@H](O[C@@H]3O[C@@H]5CO[C@@H](C)O[C@H]5[C@H](O)[C@H]3O)[C@H]3COC(=O)[C@H]23)OCO4)cc(OC)c1O [ETOPOSIDE] show? 200

---

Each entry below carries its reported IC50.
System: P388
ASSAY_NAME: Cytotoxic activity against murine P388 leukemia cells
Format: functional, cell-based
MEASUREMENT_CONDITIONS: Mus musculus
Entry rule: numbers only, all in µg/mL.

| COMPOUND | UNIT_NAME | IC50 |
| --- | --- | --- |
| Cc1cc(-c2ccc3c(=O)c(C(=O)O)cn(-c4nccs4)c3n2)cc(C)n1 | µg/mL | 7.37 |
| Cl.Nc1cc(N2CCC(N)C2)nc2c1c(=O)c(C(=O)O)cn2-c1nccs1 (centres undefined) | µg/mL | 0.0081 |
| CN[C@@H]1CN(c2ccc3c(=O)c(C(=O)O)cn(-c4nccs4)c3n2)[C@H]1C.Cl | µg/mL | 0.041 |
| Cl.NC1CCN(c2cc(Cl)c3c(=O)c(C(=O)O)cn(-c4nccs4)c3n2)C1 (centres undefined) | µg/mL | 0.049 |
| CN[C@H]1CN(c2ccc3c(=O)c(C(=O)O)cn(-c4nccs4)c3n2)C[C@H]1OC.Cl | µg/mL | 0.02 |

What does the data say about its IC50? Entry: CNC1CCN(c2ccc3c(=O)c(C(=O)O)cn(-c4nccs4)c3n2)C1.Cl (centres undefined) 0.01

# IC50 lookup, item Cl.O=C(O)c1cn(-c2nccs2)c2nc(N3C[C@@H]4CCCN[C@@H]4C3)ccc2c1=O 0.017

# input compound: CC1CC(N)CN1c1ccc2c(=O)c(C(=O)O)cn(-c3nccs3)c2n1.Cl (centres undefined) ; wanted: its IC50 0.11

Give the measured IC50 of CN[C@H]1CN(c2ccc3c(=O)c(C(=O)O)cn(-c4nccs4)c3n2)C[C@@H]1C.Cl . 0.012

Name the reported IC50 value associated with the compound Cl.NC1CCN(c2nc3c(cc2[N+](=O)[O-])c(=O)c(C(=O)O)cn3-c2nccs2)C1 (centres undefined) 2.29

IC50 lookup needed for Cl.O=C(O)c1cn(-c2nccs2)c2nc(N3CCNCC3)ccc2c1=O , thanks. 0.057

Any idea what IC50 was measured for O=C(O)c1cn(-c2nccs2)c2nc(-c3cc[nH]n3)ccc2c1=O ? 4.34

What measured IC50 goes with C[C@@H]1CN(c2ccc3c(=O)c(C(=O)O)cn(-c4nccs4)c3n2)C[C@H](C)N1.Cl ? 0.081
